Attribution: patent US6528655B1

Exercise: for every item that follows, state its recorded pIC50.
# Target system: HIV-1 integrase (Human immunodeficiency virus type 1 group M subtype B)
# Experiment summary: HIV-1 integrase inhibition assay (radiolabeled duplex substrate corresponding to the U5 end of the HIV LTR)
# Format: biochemical
Give bare numbers, as −log10 of the molar value.

Examples from the recorded data:
O=C(N[C@@H](Cc1ccc(O)cc1)C(=O)NNC(=O)c1ccccc1O)c1cc(O)c2cccc(O)c2n1 [Example 73]    5.66
O=C(C=Cc1ccc(O)c(O)c1)NC(Cc1cn(C(c2ccccc2)(c2ccccc2)c2ccccc2)cn1)C(=O)NCc1ccc(O)c(O)c1 (stereo not shown) [Example 31]    6.44
O=C(NCCCC[C@H](NC(=O)c1c(O)cc(O)cc1O)C(=O)NCCc1ccc(O)c(O)c1)OCc1ccccc1 [Example 37]    5.80

Now for another entry.
Consider the compound Cc1ccc(C(NC(=O)CC[C@H](NC(=O)c2ccc(O)c([N+](=O)[O-])c2)C(=O)NCc2ccc(O)c(O)c2)(c2ccccc2)c2ccccc2)cc1 [Example 26] and give its measured pIC50. 6.27
